Data origin, for the record: patent US11572475B2

Collected Thermal Melting (Δ° C.), Quadruplex DNA, 1:1 ratio values appear next to each entry.
Test system: Human Telomere (HT) quadruplex DNA
run_description: Thermal melting UV-Vis absorbance, quadruplex DNA
Format: binding
assay_setup: 1:1 ratio

compound=CC1(C)C(/C=C/C(=C/C=C2\N(CCC[N+](C)(C)C)c3ccccc3C2(C)C)c2ccncc2)=[N+](CCC[N+](C)(C)C)c2ccccc21 val="0.9 +/− 0.1 °C"
compound=CCCCn1/c(=C/C=C/C2=[N+](CCC[N+](C)(C)C)c3ccccc3C2(C)C)c2cccc3cccc1c32 val="1.9 +/− 0.3 °C"
compound=CC1(C)C(/C=C/C(Br)=C/C=C2\N(CCC[N+](C)(C)C)c3ccc(F)cc3C2(C)C)=[N+](CCC[N+](C)(C)C)c2ccc(F)cc21 val="2.7 +/− 0.3 °C"

Please find the next compound below.
IN: Need Thermal Melting (Δ° C.), Quadruplex DNA, 1:1 ratio, item CC1(C)C(/C=C/C(Cl)=C/C=C2\N(CCC[N+](C)(C)C)c3ccc(F)cc3C2(C)C)=[N+](CCC[N+](C)(C)C)c2ccc(F)cc21
OUT: 1.6 +/− 0.2 °C

====

System: Duplex DNA
run_description: Thermal melting UV-Vis absorbance, duplex DNA
Assay type: binding
assay_setup: ratio 4:1 (R)
Collected Change in Thermal Melting Points, Duplex, 4:1 values appear next to each entry.
Lab note: record just the number, no unit beside it.

compound=CC1(C)C(/C=C/C(Cl)=C/C=C2\N(CCC[N+](C)(C)C)c3ccccc3C2(C)C)=[N+](CCC[N+](C)(C)C)c2ccccc21.[Br-].[Br-].[Br-] val=0.9
compound=CC1(C)C(=CC=CC2=[N+](CCC[N+](C)(C)C)c3ccc(Cl)cc3C2(C)C)N(CCC[N+](C)(C)C)c2ccc(Cl)cc21.[Br-].[Br-].[Br-] val=−1.0
compound=CC1(C)C(/C=C/C(Br)=C/C=C2\N(CCC[N+](C)(C)C)c3ccccc3C2(C)C)=[N+](CCC[N+](C)(C)C)c2ccccc21 val=0.9
compound=CC1(C)C(/C=C/C=C2/N(CCC[N+](C)(C)C)c3ccc(Br)cc3C2(C)C)=[N+](CCC[N+](C)(C)C)c2ccc(Br)cc21 val=−1.0

IN: Kindly state the measured Change in Thermal Melting Points, Duplex, 4:1 obtained for CC1(C)C(=CC=CC2=[N+](CCC[N+](C)(C)C)c3ccccc3C2(C)C)N(CCC[N+](C)(C)C)c2ccccc21.[Br-].[Br-].[Br-] with Duplex DNA.
OUT: −0.2

====

Collected Thermal Melting (Δ° C.), Duplex DNA, 1:1 ratio values appear next to each entry.
Tested on: Duplex DNA
run_description: Thermal melting UV-Vis absorbance, duplex DNA
Assay type: binding
assay_setup: 1:1 ratio

compound=CCCCn1/c(=C/C=C/C2=[N+](CCC[N+](C)(C)C)c3ccccc3C2(C)C)c2cccc3cccc1c32 val="0.6 +/− 0.1 °C"

IN: Need Thermal Melting (Δ° C.), Duplex DNA, 1:1 ratio, item CC1(C)C(/C=C/C(Cl)=C/C=C2\N(CCC[N+](C)(C)C)c3ccc(F)cc3C2(C)C)=[N+](CCC[N+](C)(C)C)c2ccc(F)cc21
OUT: 0.4 +/− 0.4 °C

IN: Input CC1(C)C(/C=C/C(=C/C=C2\N(CCC[N+](C)(C)C)c3ccccc3C2(C)C)c2ccncc2)=[N+](CCC[N+](C)(C)C)c2ccccc21
OUT: 0.2 +/− 0.3 °C

IN: Input CC1(C)C(/C=C/C(Br)=C/C=C2\N(CCC[N+](C)(C)C)c3ccc(F)cc3C2(C)C)=[N+](CCC[N+](C)(C)C)c2ccc(F)cc21
OUT: 0.1 +/− 0.2 °C
